Documented Kd across a set of binders
Molecular target: T1, human CD80-murine Ig fusion protein (human)
T1 construct: Bought (Ancell #510-820); also called hCD80-mIg; human CD80-murine IgG
T1 chain: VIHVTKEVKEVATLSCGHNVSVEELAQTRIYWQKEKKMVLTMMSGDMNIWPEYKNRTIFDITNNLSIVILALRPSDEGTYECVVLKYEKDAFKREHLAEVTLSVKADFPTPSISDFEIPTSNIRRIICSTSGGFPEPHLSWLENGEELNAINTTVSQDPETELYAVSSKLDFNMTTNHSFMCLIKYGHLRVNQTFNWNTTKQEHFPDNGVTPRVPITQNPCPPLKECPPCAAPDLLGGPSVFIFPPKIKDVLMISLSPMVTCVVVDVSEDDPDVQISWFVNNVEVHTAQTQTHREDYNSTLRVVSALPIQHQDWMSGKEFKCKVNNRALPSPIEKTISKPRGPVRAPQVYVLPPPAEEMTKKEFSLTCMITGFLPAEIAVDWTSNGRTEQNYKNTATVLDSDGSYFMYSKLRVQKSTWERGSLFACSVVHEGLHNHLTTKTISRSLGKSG
Assay: SPR Biacore, hCD80-mIg captured

D3-62-IgG2 (Fc fusion) MHVAQPAVVLASSRGIASFVCEYASPGKANEIRVTVLRQADSQVTEVCAMTYMKEDELTFLDDPSCTGTFSGNQVNLTIQGLRAMDTGLYICKVELMYPPPYYLGIGNGTQIYVIDPEPCPDSDERKCCVECPPCPAPPVAGPSVFLFPPKPKDTLMISRTPEVTCVVVDVSHEDPEVQFNWYVDGVEVHNAKTKPREEQFNSTFRVVSVLTVVHQDWLNGKEYKCKVSNKGLPAPIEKTISKTKGQPREPQVYTLPPSREEMTKNQVSLTCLVKGFYPSDIAVEWESNGQPENNYKTTPPMLDSDGSFFLYSKLTVDKSRWQQGNVFSCSVMHEALHNHYTQKSLSLSPG ... < 0.439 nM

# next binder below
Provide Kd value for the following binder: D3-22-IgG2 (Fc fusion) MHVAQPAVVLASSRGIASFVCEYESPGKANEIRVTVLRQAGSQVTEVCAMTYMKGNELTFLDDPSCTGTFSGNQVNLTIQGLRAMDTGLYICKVELMYPPPYYLGIGNGTQIYVIDPEPCPDSDERKCCVECPPCPAPPVAGPSVFLFPPKPKDTLMISRTPEVTCVVVDVSHEDPEVQFNWYVDGVEVHNAKTKPREEQFNSTFRVVSVLTVVHQDWLNGKEYKCKVSNKGLPAPIEKTISKTKGQPREPQVYTLPPSREEMTKNQVSLTCLVKGFYPSDIAVEWESNGQPENNYKTTPPMLDSDGSFFLYSKLTVDKSRWQQGNVFSCSVMHEALHNHYTQKSLSLSPG
0.439 to 1.75 nM

FYI, the data here is from patent US20110177071A1.
